These entries and their values trace back to ChEMBL document CHEMBL2040740.

# Tested on: SGC-7901
# ASSAY_COMMENT: Cytotoxicity against human SGC7901 cells after 72 hrs by MTT assay
# Assay type: functional, cell-based
# RECORDED_CONDITIONS: SGC-7901, 72 h
MEASURED_PARAMETER: IC50 (µM)
Kindly provide the numeric value in µM only, without the unit symbol.

Worked examples follow.
| COMPOUND | QUANTITATIVE_RESULT |
| --- | --- |
| COc1ccc(-c2coc3cc(OC4CCCCCC4)ccc3c2=O)cc1N(CCCl)CCCl | 14.3 |
| COc1ccc(-c2coc3cc(OC4CCCC4)ccc3c2=O)cc1N(CCCl)CCCl | 15.2 |
| COc1ccc(-c2coc3cc(OCCC(C)C)ccc3c2=O)cc1N(CCCl)CCCl | 9.47 |
| CCOc1ccc2c(=O)c(-c3ccc(OC)c(N(CCCl)CCCl)c3)coc2c1 | 13 |

The record that follows has no IC50 shown yet.
q: Field request: IC50 | item: CCC(C)Oc1ccc2c(=O)c(-c3ccc(OC)c(N(CCCl)CCCl)c3)coc2c1 (stereo not given)
a: 47.5

* * *

# System: HCT-116
# ASSAY_COMMENT: Cytotoxicity against human HCT116 cells after 72 hrs by MTT assay
# Format: functional, cell-based
# RECORDED_CONDITIONS: HCT-116, 72 h
Range-based classes on measured IC50: range A = under 8 µM, range B = from 8 µM up to 10 µM, range C = 10 µM and over

| COMPOUND | ASSAYED_TARGET | GROUP |
| --- | --- | --- |
| COc1ccc(-c2coc3cc(OC4CCCCC4)ccc3c2=O)cc1N(CCCl)CCCl | HCT-116 | range A |

q: Kindly identify the class of COc1ccc(-c2coc3cc(OC4CCCC4)ccc3c2=O)cc1N(CCCl)CCCl .
a: range B

q: Kindly identify the class of COc1ccc(-c2coc3cc(O)ccc3c2=O)cc1N(CCCl)CCCl .
a: range A

q: Kindly identify the class of C=CCOc1ccc2c(=O)c(-c3ccc(OC)c(N(CCCl)CCCl)c3)coc2c1 .
a: range A

q: Kindly identify the class of CCOc1ccc2c(=O)c(-c3ccc(OC)c(N(CCCl)CCCl)c3)coc2c1 .
a: range B

q: Kindly identify the class of COc1ccc(-c2coc3cc(OC(C)C)ccc3c2=O)cc1N(CCCl)CCCl .
a: range A

q: Kindly identify the class of N[C@@H](Cc1ccc(N(CCCl)CCCl)cc1)C(=O)O .
a: range C

q: Kindly identify the class of COc1ccc(-c2coc3cc(OCc4ccccc4)ccc3c2=O)cc1N(CCCl)CCCl .
a: range A

q: Kindly identify the class of COc1ccc(-c2coc3cc(OCC=C(C)C)ccc3c2=O)cc1N(CCCl)CCCl .
a: range C

* * *

# Tested on: SH-SY5Y
# ASSAY_COMMENT: Cytotoxicity against human SH-SY5Y cells after 72 hrs by MTT assay
# Format: functional, cell-based
Measured IC50, listed per entry for reference.
Kindly provide the numeric value in µM only, without the unit symbol.

| MOL_SMILES | DISPLAY_UNIT | QUANTITATIVE_RESULT |
| --- | --- | --- |
| COc1ccc(-c2coc3cc(O)ccc3c2=O)cc1N(CCCl)CCCl | µM | 2.7 |
| CCOc1ccc2c(=O)c(-c3ccc(OC)c(N(CCCl)CCCl)c3)coc2c1 | µM | 11.9 |
| N[C@@H](Cc1ccc(N(CCCl)CCCl)cc1)C(=O)O | µM | 5.5 |
| COc1ccc(-c2coc3cc(OCc4ccccc4)ccc3c2=O)cc1N(CCCl)CCCl | µM | 11.4 |
| COc1ccc(-c2coc3cc(OC4CCCC4)ccc3c2=O)cc1N(CCCl)CCCl | µM | 5.13 |

q: For SH-SY5Y, provide IC50 of COc1ccc(-c2coc3cc(OCC=C(C)C)ccc3c2=O)cc1N(CCCl)CCCl please.
a: 5.25

q: For SH-SY5Y, provide IC50 of COc1ccc(-c2coc3cc(OC(C)C)ccc3c2=O)cc1N(CCCl)CCCl please.
a: 2.17
